Data provenance: PubChem BioAssay (NCI)

Tested on: NCI-H522 lung
Experimental details: NCI-60 one-dose screen, 48 h
Conditions used: 10 µM unless noted
Compounds without any hit were thinned out: in the full panel of roughly 83,000, 20% have a hit. Calls of active or inactive are those of the source. How the source made its calls: active means growth percent below 10; inactive means the rest.
Outcomes: true (1) (active), false (0) (inactive)

# Molecule, Group
measured = [
    ("CCCN=C1NC(=O)/C(=C/c2nc(-c3ccc(OC)cc3)n3ccccc23)S1", "false (0)"),
    ("Cc1c(C(=N)C(C#N)C#N)c(=N)oc2c1ccc1ccccc12", "true (1)"),
    ("C=C(C)[C@@H]1C[C@@H]2Cc3ccc(Cl)c(C)c3N1O2", "false (0)"),
    ("S=c1[nH]nc(-c2cc3ccc2CCc2ccc(cc2)CC3)n1-c1ccccc1", "false (0)"),
    ("CCN1C(=O)N(CC)C2C1NN=c1s/c(=C\\c3cccnc3)c(=O)n12 (stereo not given)", "true (1)"),
    ("Cn1c(=O)cc(NC(=O)CN2CCN(c3cc4c(cc3F)c(=O)c(C(=O)O)cn4C3CC3)CC2)[nH]c1=O", "false (0)"),
    ("Cc1[nH]c2ccc(F)cc2c1CCNC(=O)C1CCN(C(=O)c2ccccc2)CC1", "false (0)"),
    ("Cc1ccc(-c2cc3nc(-c4ccccc4)nc(C(Cl)Cl)n3n2)cc1", "false (0)"),
    ("NC(=O)c1c(NC(=S)Nc2ccc(OC(F)(F)F)cc2)sc2c1CCC1(C2)OCCO1", "false (0)"),
    ("Cc1ccc(/C=C2\\CN(C(=O)CCN3CCC(=NO)CC3)C/C(=C\\c3ccc(C)cc3)C2=O)cc1", "true (1)"),
]

----------
Test system: HCC-2998 colon
Experimental details: NCI-60 one-dose screen, 48 h (100 = growth as untreated, 0 = no growth, -100 = all killed)
Conditions used: 10 µM unless noted
About 83,000 compounds went through this panel and 20% of them were active in at least one assay; those are over-represented in the sample as a whole. Calls of active or inactive are those of the source. The calls were made as follows: active = growth percent below 10; inactive = the rest.

# Molecule, growth
records = [
    ("CCCC(=O)Oc1ccc(/C(=C(\\C)c2ccccc2)c2ccc(OCCN(CC)CC)cc2)cc1", "83.2% (inactive)"),
    ("COc1cc(/C=C/C(=O)c2c(C)nc3ccccc3c2C)ccc1OCCCCOc1cc2c(cc1OC)C(=O)N1CCC[C@H]1C=N2", "-100% (active)"),
    ("CC(C)C1=CC2=C(C=O)C[C@@H]3[C@](C)(CCC[C@@]3(C)C(=O)OCC#CCN3CCCC3)[C@H]2CC1", "93.9% (inactive)"),
    ("Cc1ccc(/C=C2\\CN(C(=O)CCN3CCC(=NO)CC3)C/C(=C\\c3ccc(C)cc3)C2=O)cc1", "-70.7% (active)"),
    ("CSc1nc2c(c(=O)[nH]1)C(c1ccc(C)cc1)C=C(C(=O)O)N2 (stereo not given)", "102% (inactive)"),
    ("CC(C)(C)N1CCC1C(N)=O (stereo not given)", "47% (inactive)"),
    ("COc1ccc(/C=C2\\N=C(c3ccccc3)N(C(=O)c3ccccc3O)NC2=O)cc1", "93.7% (inactive)"),
    ("Clc1cccc(-c2cc(-c3ccc4c(c3)OCCO4)[nH]n2)c1", "58.1% [25 µM] (inactive)"),
    ("O=C(CSC1CCc2ccccc21)N/N=C/c1ccccc1O (stereo not given)", "66.7% (inactive)"),
    ("Clc1ccccc1-c1nc2ccccc2[nH]1", "70.9% (inactive)"),
]
